# MEASUREMENT TARGET: HOXA1-PBX1/DNA (Mus musculus)
# Construct: the mouse/human 233-319 PBX1 protein
# PROCEDURE SUMMARY: EMSA, formation of HOXA1-PBX1/DNA ternary complex
# Type: binding
# CONDITION INFO: Table 1; EMSA, averaged densitometric analysis of multiple gels
Below, each of the compounds is paired with its reported pIC50 value.
pIC50 here is simply -log10 of the concentration when that concentration is written in mol/L.

Example results:
Can you share its pIC50? I mean this compound: O=C(COc1ccc(C(=O)Nc2cccc(F)c2)c2ccccc12)Nc1ccc(O)cc1
4.19

Can you share its pIC50? I mean this compound: CC(C)NC(=O)COc1ccc(C(=O)Nc2cccc(F)c2)c2ccccc12
3.57

Can you share its pIC50? I mean this compound: COc1ccc(NC(=O)COc2ccc(C(=O)Nc3cccc(F)c3)c3ccccc23)cc1OC
3.33

Can you share its pIC50? I mean this compound: C#CCNC(=O)COc1ccc(C(=O)Nc2cccc(F)c2)c2ccccc12
3.48

More entries:
Can you share its pIC50? I mean this compound: O=C(COc1ccc(C(=O)Nc2cccc(F)c2)c2ccccc12)NC1CC1
3.76

Can you share its pIC50? I mean this compound: CCCNC(=O)COc1ccc(C(=O)Nc2cccc(F)c2)c2ccccc12
3.56

Can you share its pIC50? I mean this compound: CC(C)CNC(=O)COc1ccc(C(=O)Nc2cccc(F)c2)c2ccccc12
3.53

====

# MEASUREMENT TARGET: HOXA1-PBX1/DNA (Mus musculus)
# Construct: the mouse/human 233-319 PBX1 protein
# Sequence (P41778 233-319): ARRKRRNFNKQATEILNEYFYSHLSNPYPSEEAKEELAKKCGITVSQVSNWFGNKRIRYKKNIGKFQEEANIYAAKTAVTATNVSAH
# PROCEDURE SUMMARY: EMSA, formation of HOXA1-PBX1/DNA ternary complex
# Format: binding
# CONDITION INFO: Table 1; EMSA, averaged densitometric analysis of multiple gels
Below, each of the molecules is paired with its reported IC50 value.
Express it in µM; write the number only.

Example results:
Can you share its IC50? I mean this molecule: O=C(COc1ccc(C(=O)Nc2cccc(F)c2)c2ccccc12)Nc1cccc(O)c1
86

Can you share its IC50? I mean this molecule: NC(=O)COc1ccc(C(=O)Nc2cccc(F)c2)c2ccccc12
272

Can you share its IC50? I mean this molecule: COc1ccccc1NC(=O)COc1ccc(C(=O)Nc2cccc(F)c2)c2ccccc12
718

Can you share its IC50? I mean this molecule: O=C(COc1ccc(C(=O)Nc2cccc(F)c2)c2ccccc12)Nc1ccccc1
254

Can you share its IC50? I mean this molecule: O=C(COc1ccc(C(=O)Nc2cccc(F)c2)c2ccccc12)Nc1ccc(F)cc1
293

More entries:
Can you share its IC50? I mean this molecule: COc1cccc(NC(=O)COc2ccc(C(=O)Nc3cccc(F)c3)c3ccccc23)c1
580

Can you share its IC50? I mean this molecule: COc1ccc(NC(=O)COc2ccc(C(=O)Nc3cccc(F)c3)c3ccccc23)cc1
161

Can you share its IC50? I mean this molecule: O=C(COc1ccc(C(=O)Nc2cccc(F)c2)c2ccccc12)NCC(F)(F)F
111

====

# MEASUREMENT TARGET: HOXA1-PBX1/DNA (Mus musculus, UniProt P41778)
# Construct: the mouse/human 233-319 PBX1 protein
# PROCEDURE SUMMARY: EMSA, formation of HOXA1-PBX1/DNA ternary complex
# Assay type: binding
# CONDITION INFO: Table 3; tricyclo[6.2.2.0^2,7]dodeca-2(7),3,5-trienes
Below, each of the compounds is paired with its reported IC50 value.
Express it in µM; write the number only.

Example results:
Can you share its IC50? I mean this compound: O=C(COc1ccc(C(=O)Nc2cccc(F)c2)c2c1C1CCC2CC1)NC1CC1
562

Can you share its IC50? I mean this compound: O=C(COc1ccc(C(=O)Nc2cccc(F)c2)c2c1C1CCC2CC1)Nc1ccc(O)cc1
196

Now, please, on to the next compound.
Can you share its IC50? I mean this compound: O=C(COc1ccc(C(=O)Nc2cccc(F)c2)c2c1C1CCC2CC1)NCC(F)(F)F
258

====

# MEASUREMENT TARGET: BRN2/DNA (Mus musculus)
# Construct: using nuclear extracts from RA treated P19 cells; endogenous in cells
# Sequence (P31360 whole entry): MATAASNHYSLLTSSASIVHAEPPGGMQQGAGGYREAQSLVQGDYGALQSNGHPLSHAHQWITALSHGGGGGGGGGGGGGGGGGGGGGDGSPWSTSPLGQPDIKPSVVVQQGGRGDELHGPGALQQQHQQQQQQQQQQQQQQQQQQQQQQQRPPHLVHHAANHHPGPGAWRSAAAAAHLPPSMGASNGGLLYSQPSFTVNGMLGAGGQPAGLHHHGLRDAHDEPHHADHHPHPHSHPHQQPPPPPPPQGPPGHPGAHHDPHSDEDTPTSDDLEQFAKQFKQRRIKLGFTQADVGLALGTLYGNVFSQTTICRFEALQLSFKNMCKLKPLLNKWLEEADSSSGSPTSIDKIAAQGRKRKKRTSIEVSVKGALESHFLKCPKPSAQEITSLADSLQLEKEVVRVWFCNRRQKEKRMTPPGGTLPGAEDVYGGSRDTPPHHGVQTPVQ
# PROCEDURE SUMMARY: EMSA, BRN2/DNA complex (nuclear extracts from RA treated P19 cells)
# CONDITION INFO: EMSA with BRN2 recognition element probe
MEASUREMENT NAME: IC50 (µM)
Express it in µM; write the number only.

Can you share its IC50? I mean this compound: O=C(COc1ccc(C(=O)Nc2cccc(F)c2)c2ccccc12)NCC(F)(F)F
204

Can you share its IC50? I mean this compound: O=C(COc1ccc(C(=O)Nc2cccc(F)c2)c2ccccc12)Nc1ccc(O)cc1
138

Can you share its IC50? I mean this compound: O=C(COc1ccc(C(=O)Nc2cccc(F)c2)c2ccccc12)Nc1cccc(O)c1
148
